Target: cyclooxygenase-2 (Mus musculus, UniProt Q05769)
Construct: blended with 3% FBS-RPMI 1640 medium containing 10 μg/ml of LPS in each well; endogenous in cells; host or cells: primary mouse peritoneal macrophages, pretreated with 500 μM aspirin and induced with LPS
Sequence (Q05769 18-604): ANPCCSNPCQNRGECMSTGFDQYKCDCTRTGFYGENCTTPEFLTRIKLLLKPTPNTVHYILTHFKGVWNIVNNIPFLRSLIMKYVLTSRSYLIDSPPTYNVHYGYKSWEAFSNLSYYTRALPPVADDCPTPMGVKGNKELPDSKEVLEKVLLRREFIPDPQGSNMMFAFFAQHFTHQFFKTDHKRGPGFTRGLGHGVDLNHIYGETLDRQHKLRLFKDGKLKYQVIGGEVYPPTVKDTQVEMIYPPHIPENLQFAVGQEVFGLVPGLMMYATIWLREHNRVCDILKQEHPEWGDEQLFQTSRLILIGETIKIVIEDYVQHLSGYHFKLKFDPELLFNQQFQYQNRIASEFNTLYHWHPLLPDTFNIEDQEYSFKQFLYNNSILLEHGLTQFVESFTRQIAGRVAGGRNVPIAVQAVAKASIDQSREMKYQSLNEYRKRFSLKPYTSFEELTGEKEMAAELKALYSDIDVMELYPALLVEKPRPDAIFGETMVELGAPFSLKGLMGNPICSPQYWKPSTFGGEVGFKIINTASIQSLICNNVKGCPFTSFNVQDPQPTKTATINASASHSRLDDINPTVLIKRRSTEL
Assay: Cyclooxygenase-2 inhibition in aspirin-treated, LPS-induced mouse peritoneal macrophages (PGE2 ELISA)
Type: cell-based
Conditions: 300 nM
REPORTED_METRIC: Inhibitory effects of cyclooxygenase (COX): COX-2 (% inhibition)

Would you please look over these solved cases?
{"columns": ["SMI", "TARGET", "QUANTITY_UNIT", "RESULT_NUMBER"],
 "data": [
  ["CCOc1ccc(-c2ccc(S(C)(=O)=O)cc2)cc1OCC", "cyclooxygenase-2 (Mus musculus, UniProt Q05769)", "% inhibition", 76.5],
  ["CS(=O)(=O)c1ccc(-c2ccc(OC3CC3)c(OC3CC3)c2)cc1", "cyclooxygenase-2 (Mus musculus, UniProt Q05769)", "% inhibition", 46.5],
  ["CS(=O)(=O)c1ccc(-c2ccc(OCc3ccccc3)c(OCc3ccccc3)c2)cc1", "cyclooxygenase-2 (Mus musculus, UniProt Q05769)", "% inhibition", 68.4],
  ["CCCCOc1cc(-c2ccc(S(C)(=O)=O)cc2)ccc1OC(C)C", "cyclooxygenase-2 (Mus musculus, UniProt Q05769)", "% inhibition", 70.4],
  ["COc1ccc(-c2ccc(S(C)(=O)=O)cc2)cc1OC", "cyclooxygenase-2 (Mus musculus, UniProt Q05769)", "% inhibition", 59.7]
]}

[P] CS(=O)(=O)c1ccc(-c2ccc(OC3CCCC3)c(OC3CCCC3)c2)cc1
[Q] CCCOc1ccc(-c2ccc(S(C)(=O)=O)cc2)cc1OCCC
*Q* Please compare: P and Q . Report which one has the smaller Inhibitory effects of cyclooxygenase (COX): COX-2 value. Answer = label.
*A* Q
(Q: 10.1 % inhibition, P: 54.7 % inhibition)
